Study system: EPHB2 (UniProt P29323)
Sequence (P29323 whole entry, looked up): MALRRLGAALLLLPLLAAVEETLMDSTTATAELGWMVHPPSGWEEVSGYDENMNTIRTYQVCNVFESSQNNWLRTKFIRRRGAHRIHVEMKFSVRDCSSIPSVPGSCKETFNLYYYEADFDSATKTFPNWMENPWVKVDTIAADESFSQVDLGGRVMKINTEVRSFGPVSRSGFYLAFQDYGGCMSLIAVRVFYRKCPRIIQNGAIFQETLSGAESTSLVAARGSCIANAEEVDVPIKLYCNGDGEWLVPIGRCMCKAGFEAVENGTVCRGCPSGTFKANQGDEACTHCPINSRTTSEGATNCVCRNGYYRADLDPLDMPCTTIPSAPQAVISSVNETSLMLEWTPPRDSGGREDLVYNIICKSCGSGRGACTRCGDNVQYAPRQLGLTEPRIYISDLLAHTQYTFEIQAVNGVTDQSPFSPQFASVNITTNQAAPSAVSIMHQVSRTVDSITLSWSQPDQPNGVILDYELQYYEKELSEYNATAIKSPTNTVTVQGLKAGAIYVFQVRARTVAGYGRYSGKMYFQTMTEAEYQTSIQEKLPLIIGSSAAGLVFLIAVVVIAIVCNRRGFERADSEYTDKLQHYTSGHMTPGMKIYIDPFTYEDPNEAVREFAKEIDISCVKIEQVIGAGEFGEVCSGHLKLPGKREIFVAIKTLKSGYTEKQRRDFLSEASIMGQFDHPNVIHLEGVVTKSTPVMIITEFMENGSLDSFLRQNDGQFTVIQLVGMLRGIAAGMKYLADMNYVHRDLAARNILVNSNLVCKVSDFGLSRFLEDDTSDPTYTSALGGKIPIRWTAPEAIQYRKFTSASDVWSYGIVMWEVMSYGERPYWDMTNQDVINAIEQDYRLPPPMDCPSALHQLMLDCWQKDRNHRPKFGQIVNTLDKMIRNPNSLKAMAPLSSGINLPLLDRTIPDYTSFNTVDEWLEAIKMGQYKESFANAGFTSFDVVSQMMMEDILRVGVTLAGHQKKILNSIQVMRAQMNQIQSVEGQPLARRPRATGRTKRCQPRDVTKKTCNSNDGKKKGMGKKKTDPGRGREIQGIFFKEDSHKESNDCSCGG
Test summary: phosphorylation enrichment, bacterial display (enrichment ratio); higher = better substrate or ligand; peptides without Tyr show the background
Measurement kind: phosphorylation enrichment
Give bare numbers.

Below, each entry is followed by its recorded phosphorylation enrichment result.
| Item sequence | Study system | phosphorylation enrichment |
| --- | --- | --- |
| TDHLQYFDSNK [ARAP1_Y359_R358Q] | EPHB2 (UniProt P29323) | 0.651 |
| VDTFWYKFLKP [EPM2A_Y86_R91P] | EPHB2 (UniProt P29323) | 0.533 |
| VVHGSYDEIEG [SEC24A_Y263_S261G] | EPHB2 (UniProt P29323) | 0.387 |

// for each sequence in input: emit phosphorylation enrichment
1. IKNPQYFSDAC [NTRK1_Y496_E492K]
2. RNFGTYTAGLS [RHBDD1_Y264_D262G_YF]
3. CTTIDYNYMCN [TP53_Y234_H233D]
4. VEEDTYTMPST [PTK2_Y407_D402V]
5. IIGNGYFFHVF [MYBPC3_Y1135_R1138H_YF]
6. GDPTEYFITAI [IGSF22_Y501_S503I_YF]
7. THQNSYQPGRK [CEFIP_Y210]

1. 0.415
2. 0.477
3. 0.643
4. 0.675
5. 0.547
6. 0.644
7. 0.366

For every listed record, write down its phosphorylation enrichment.
1. DLAGRYYALKS [CKB_Y173]
2. YASALYGQRRS [FGF11_Y162_R163G]
3. PTTKTYFPHFF [HBA1_Y43_D48Y_YF]

1: 0.419; 2: 0.384; 3: 0.716

###

Study system: Grb2 SH2 (UniProt P62993)
Sequence (P62993 whole entry, looked up): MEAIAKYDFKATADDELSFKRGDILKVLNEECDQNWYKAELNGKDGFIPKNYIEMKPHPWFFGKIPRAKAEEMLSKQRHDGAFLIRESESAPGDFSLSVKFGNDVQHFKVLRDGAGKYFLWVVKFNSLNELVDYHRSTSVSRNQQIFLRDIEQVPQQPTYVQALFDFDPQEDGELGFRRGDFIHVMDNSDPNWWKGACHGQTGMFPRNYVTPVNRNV
Test summary: SH2 binding enrichment of the phosphorylated peptide, bacterial display (enrichment ratio); higher = better substrate or ligand; peptides without Tyr show the background
Measurement kind: SH2 binding enrichment

Solved entries (count: 5):
| Item sequence | Study system | SH2 binding enrichment |
| --- | --- | --- |
| TGQERYRAITS [RAB11B_Y73_A68T] | Grb2 SH2 (UniProt P62993) | 0.836 |
| TKAEKYVNKAK [PLCG1_Y991] | Grb2 SH2 (UniProt P62993) | 0.89 |
| EGELRYMHSRV [ABCD1_Y281_K276E] | Grb2 SH2 (UniProt P62993) | 0.677 |
| LMVFEYMRHGD [NTRK1_Y591] | Grb2 SH2 (UniProt P62993) | 1.67 |
| VNQSGYTLIRK [ATP6V0A2_Y688_R685Q] | Grb2 SH2 (UniProt P62993) | 0.861 |

Batch lookup, SH2 binding enrichment per entry.
1. LHSEAYLKYIE [PBRM1_Y1610]
2. LAGRYYALRSM [CKB_Y174_K177R]
3. AHADEYGAEAL [HBA1_Y25_G23D]

1. 0.664
2. 1.38
3. 0.781

###

Study system: SHP2-C SH2
Test summary: SH2 binding enrichment of the phosphorylated peptide, bacterial display (enrichment ratio); higher = better substrate or ligand; peptides without Tyr show the background
Answer each item with its documented SH2 binding enrichment.
One number for each entry.

| Item sequence | Measurement kind | Numeric result |
| --- | --- | --- |
| RKLVDYNSARH [BIN1_Y150_D151N] | SH2 binding enrichment | 0.814 |

Go through the items and report each one's SH2 binding enrichment.
1. GVFSRHFTTFD [CLCA1_Y661_Y661H_YF]
2. VTAALYGCLFE [BTD_Y536_R538C_YF]
3. FGRTFYNQANM [MCCC2_Y196_I200N]
4. VLPIDYYFPPQ [AR_Y552]

0.612
0.606
0.556
0.85

For each of the sequences below, state SH2 binding enrichment.
1. TISPYYCQSLF [CRYAA_Y48_R49C]
2. TVLWLYTGTRP [UGT1A1_Y337_R336L]
3. FYLGAYDRFLP [SLC22A5_Y486_V481F]
4. FDGKDYIALKE [HLA-A_Y147_N151K_YF]
5. VTRDEYPSNPM [CEMIP2_Y1015_I1010V]
6. TRSYDYTEGGD [FGF7_Y58_M59T]

0.743
1.3
1.37
0.677
0.783
0.565

Record SH2 binding enrichment for all entries; do not skip any.
1. VHNLDYFKMTT [FGFR3_Y647_K650M_YF]
2. LNWIFYKDQTG [RS1_Y166_YF]
3. SARSAYQEAMD [SFN_Y151]
4. ACEVLYNIVFM [NCF2_Y125_A128V]
5. YNDSAYNQQLI [ZPLD1_Y198_T197A]
6. GRPLFYWLTGC [LYZL6_Y140]
7. KSSDVYVSFDF [SORL1_Y136_YF]

1: 0.556; 2: 0.88; 3: 0.713; 4: 0.733; 5: 0.552; 6: 0.85; 7: 0.715

Would you mind giving SH2 binding enrichment for every sequence in the list below?
1. TAGEPYHDIRF [BAP1_Y223]
2. GSSSSCGQHGS [HRNR_Y517_Y517C]
3. SNKLTYGTMVF [ACOX1_Y275]
4. LDYNEYFRDLN [HPRT1_Y198]
5. DDDPEDRKFLE [UPF3B_Y160_Y160D]

[0.776, 0.875, 1.05, 0.861, 0.613]

For each entry beneath this line, provide reported SH2 binding enrichment.
1. VNQSGYTLIRK [ATP6V0A2_Y688_R685Q]
2. VNFDYYTVNLG [GFPT1_Y367_D366Y]
3. FFCRWYRNQKS [EREG_Y144_R147Q_YF]
4. VFPATYHPDHW [EFCAB12_Y544_YF]
5. RLSELYLRRNP [CFAP410_Y68_R73P]

1: 9.3; 2: 1.46; 3: 0.657; 4: 0.722; 5: 0.303

# get_value(readout= SH2 binding enrichment, system= SHP2-C SH2) for RKGGSYTQAAS [HLA-A_Y344]
0.584
